Data origin, for the record: ChEMBL document CHEMBL2203068

- Tested on: Staphylococcus aureus
- assay.info: Antimicrobial activity against methicillin-sensitive Staphylococcus aureus CCARM 3640 incubated for 24 hrs by microtiter broth dilution method
- Format: functional
- measurement.conditions: CCARM 3640, 24 h
Could you please report measured MIC for the items listed next?

COc1ccc(C=C2OC(=O)C=C2c2ccc(O)c(Br)c2)cc1 | > 32 µg/mL
COc1ccc(C=C2OC(=O)C=C2c2cc(Br)c(O)c(Br)c2)cc1 [RUBROLIDE P] | > 32 µg/mL

Now, please, on to the next compound.
Exercise: # query: MIC of entry O=C1O/C(=C\c2ccc(O)c(Br)c2)C(c2ccc(O)c(Br)c2)=C1C(=O)c1cc(Br)c(O)c(Br)c1 [CADIOLIDE C]
Solution: < 0.13 µg/mL
